- MEASUREMENT PROTOCOL: RP, Waters ACQUITY UPLC BEH C18, 100 × 2.1 mm, 1.7 µm, 65 °C, 0.4 mL/min, estimated dead time 0.55 min; A: water + 0.1% formic acid, pH 3; B: 80% acetonitrile + 20% acetone + 0.1% formic acid, pH 3; gradient (min/%B) 0/0 5/100 5.5/0 6/0
- DETAILS: stereoisomer not certain
QUANTITY MEASURED: LC retention time (min)
Quick note: give the figure in min, leave out the unit.

In [3]: df
Out[3]:
                                   compound  test_value
0  O=C(O)Cc1c[nH]c2ccccc12 [3-Indoleacetic acid]        2.35

Let's switch to this compound now.
Task: # lookup: LC retention time of O=c1c(-c2ccc(O)cc2)coc2cc(O)ccc12 [Daidzein]
Output: 2.53

====

- MEASUREMENT PROTOCOL: RP, Phenomenex Kinetex EVO C18, 100 × 2.1 mm, 2.6 µm, 40 °C, 0.4 mL/min, estimated dead time 0.55 min; A: water + 0.2% formic acid; B: acetonitrile + 0.2% formic acid; gradient (min/%B) 0/5 0.5/5 7/95 8/95 8.5/5 12/5
- DETAILS: stereoisomer not certain
QUANTITY MEASURED: LC retention time (min)
Quick note: give the figure in min, leave out the unit.

Consider the reported LC retention time for these compounds:
In [3]: df
Out[3]:
                                   compound  test_value
0  O=S(=O)(O)Oc1cc(O)cc(C=Cc2ccc(O)cc2)c1 [Resveratrol 3-O-sulfate]        5.89
1                      O=C(O)c1ccc(O)c(O)c1        1.55
2  O=C(O)c1ccc(OC2OC(C(=O)O)C(O)C(O)C2O)cc1 (stereo unspecified) [Hydroxybenzoic acid-4-glucuronide]        1.06

Task: # lookup: LC retention time of "O=c1oc2cc(O)ccc2c2ccc(O)cc12"
Output: 5.59

Task: # lookup: LC retention time of O=c1c(OS(=O)(=O)O)c(-c2ccc(O)c(O)c2)oc2cc(O)cc(O)c12 [Quercetin 3-O-sulfate]
Output: 6.76

Task: # lookup: LC retention time of O=C(O)c1ccc(O)cc1 [4-Hydroxybenzoic acid]
Output: 2.18

====

- MEASUREMENT PROTOCOL: RP, Waters Atlantis T3, 100 × 2.1 mm, 3 µm, 40 °C, 0.3 mL/min, estimated dead time 0.73 min; A: water + 0.1% trifluoroacetic acid, pH 2; B: acetonitrile + 0.1% trifluoroacetic acid, pH 2; gradient (min/%B) 0/10 1/10 6/40 7/50 8/50 14/70 16/80 20/10 25/10
- DETAILS: stereoisomer not certain
Grouping by measured LC retention time is done with the following cut points: small value: < 7 min; mid value: ≥ 7 min and < 10 min; large value: ≥ 10 min

COMPOUND	ANSWER LABEL
OCC1OC(Oc2cc3c(O)cc(O)cc3[o+]c2-c2ccc(O)c(O)c2)C(O)C(O)C1O (stereo not drawn) [Cyanidin 3-O-glucoside]	small value
COc1cc(C(=O)O)cc(OC)c1O	small value
COc1cc(O)c2c(c1)OC(c1ccc(O)cc1)CC2=O (stereo not drawn)	large value
CC(C)c1cc2c(c(O)c1O)C1(C(=O)O)CCCC(C)(C)C1CC2 (stereo not drawn)	large value
Oc1cc(O)c2c(c1)OC(c1ccc(O)c(O)c1)C(O)C2c1c(O)cc(O)c2c1OC(c1ccc(O)c(O)c1)C(O)C2c1c(O)cc(O)c2c1OC(c1ccc(O)c(O)c1)C(O)C2 (stereo not drawn)	small value
O=C(C=Cc1ccc(O)c(O)c1)OC(Cc1ccc(O)c(O)c1)C(=O)O (stereo not drawn)	mid value
COc1ccc(C2CC(=O)c3c(O)cc(OC4OC(COC5OC(C)C(O)C(O)C5O)C(O)C(O)C4O)cc3O2)cc1 (stereo not drawn)	mid value
O=C(O)c1ccc(O)cc1 [4-Hydroxybenzoic acid]	small value

Task: For the record "O=C(O)c1ccc(O)c(O)c1" , report the class its LC retention time corresponds to.
Output: small value
